Here, each record is paired with measured TGI data.
- Test system: KM20L2 colon
- Measurement Notes: NCI tumour cell line growth inhibition, 48 h

>>> result("O=C1CCC(=O)C12CCc1ccccc12")
"> 100 µM"
>>> result("O=C1C2Cc3ccccc3CN2C(=O)N1CCN1CCOCC1 (stereo unspecified)")
"> 100 µM"

Problem: For the molecule COc1ccc(/C=C2\CCC(CN(C)C)C2=O)cc1 (stereo unspecified) , give its reported TGI.
Result: 36.8 µM

###

- System: SK-MEL-2 melanoma
- Measurement Notes: NCI tumour cell line growth inhibition, 48 h
compounds and their reported TGI

>>> result("COc1cccc(-c2nn(C)c3sc(C(=O)NCCN4CCN(c5ccccc5F)CC4)cc23)c1")
"> 100 µM"
>>> result("COc1ccc(Nc2cnc3cc(N)ccc3n2)cc1OC")
"> 100 µM"
>>> result("COC(=O)c1cccc(COc2ccc([N+](=O)[O-])cc2Cl)c1")
"> 100 µM"
>>> result("COc1ccc(C(CC(=O)c2ccc(O)cc2)C(C(=O)c2ccc(O)cc2)C(c2ccc(OC)cc2)C2C(=O)NC(=S)NC2=O)cc1 (stereo not given)")
"70.8 µM"
>>> result("C=CCOc1ccc2c(c1)CC[C@@H]1[C@@H]2CC[C@]2(C)C(=O)/C(=N/O)C[C@@H]12")
"10.4 µM"
>>> result("CCOC(=O)C(/C=N/C(N)=S)=C(/O)c1ccccc1")
"> 100 µM"
>>> result("Cc1ccc(Sc2cc([N+](=O)[O-])cc(Sc3ccc(C)cc3)c2Sc2ccc(C)cc2)cc1")
"> 100 µM"
>>> result("COC(=O)C1=C(C(=O)OC)C2CCC1CC2=O (stereo not given)")
"> 100 µM"
>>> result("Nc1nc(=O)n(C2CC(O)C(CO)O2)c2nc(-c3ccc(-c4ccccc4)cc3)cnc12 (stereo not given)")
"> 100 µM"

Let us examine a further case.
Problem: Read off the recorded TGI for "COC(=O)/C=C/c1cc(OC)c2c(c1)[C@@H](C(=O)OC)[C@H](c1ccc(OC)c(OC)c1)O2"
Result: > 100 µM

###

- Tested on: SR leukemia
- Measurement Notes: NCI tumour cell line growth inhibition, 48 h; in the data active = GI50 below about 0.43 µM; inactive = the rest
// one of true (active), false (inactive), no free text

Example entries and their recorded answers appear below.
>>> category_label("C=CCOc1ccc2c(c1)CC[C@@H]1[C@@H]2CC[C@]2(C)C(=O)/C(=N/O)C[C@@H]12")
"false"
>>> category_label("Nc1nc(-c2ccccc2Cl)cc(-c2ccc(Cl)cc2Cl)n1")
"false"
>>> category_label("c1ccc(Oc2cnc3ccccc3n2)cc1")
"false"
>>> category_label("Clc1ccc2c(NCCCNCc3ccc4c(c3)OCO4)ccnc2c1")
"false"

Problem: // outcome(item) with item = "COc1ccc(-n2cc(-c3ccc(F)cc3)[nH]c2=O)cc1OC"
Result: false

Problem: What is the recorded call for this compound in the test? "Cn1cc(C2=C(c3cn(CCCN/C(N)=N\[N+](=O)[O-])c4ccccc34)C(=O)NC2=O)c2ccccc21"
Result: false

Problem: Answer briefly: the call reported for "COc1ccc(-c2nn(C(=O)c3cc(OC)c(OC)c(OC)c3)c3cc(N)ccc23)cc1" in this assay.
Result: true

Problem: Recorded test call requested for "Cc1nc(N(C)C)nc(-c2cccc(-c3ccn(CCN(C)C)n3)c2)c1C"
Result: false

###

- System: HOP-62 NSCLC
- Measurement Notes: NCI tumour cell line growth inhibition, 48 h
TGI for assorted compounds
Just the number in µM, nothing appended.

Use these answered entries as a reference point.
>>> numeric_readout("O=CC1C(=O)Nc2nc3ccccc3n2C1c1ccccc1 (stereo unspecified)")
20.2
>>> numeric_readout("COc1cc(/C=C/C(=O)c2ccc(SC)cc2)cc(OC)c1OC")
29.5

Problem: Input "CCc1cc(Cc2cc(CC)cc(C(C)(C)C)c2O)c(O)c(C(C)(C)C)c1" , output reported TGI.
Result: 17.1

###

Recorded TGI, one value per entry.
- System: SN12C renal
- Measurement Notes: NCI tumour cell line growth inhibition, 48 h
// units = µM; emit number, no label

Solved cases below.
>>> numeric_readout("Cc1cc(=O)[nH]c2c1C(=O)C(=O)C=C2")
32.7
>>> numeric_readout("O=[N+]([O-])c1cnccc1-n1nnc2ccccc21")
37.7

Next molecule, please.
Problem: Report value: TGI, system: SN12C renal, molecule: C=CCOC1=C(OC(C)=O)C(C2COC(C)(C)O2)OC1=O (stereo not given)
Result: 70.8

###

Documented GI50 across a set of compounds
- Tested on: HOP-92 NSCLC
- Measurement Notes: NCI tumour cell line growth inhibition, 48 h

Below, 3 compounds whose answers are already recorded.
>>> result("CC/C(=C(/c1ccc(Cl)cc1)c1ccc(OCCCN(C)C)cc1)c1ccc(OC)cc1")
"829 nM"
>>> result("COc1ccc(/C=N/C2=C(C#N)C(c3ccccc3)c3ccc4ccccc4c3O2)cc1 (centres undefined)")
"439 nM"
>>> result("Nc1c(S(=O)(=O)O)cc2c(c1Cl)C(=O)c1ccccc1C2=O")
"> 100000 nM"

Please turn your attention to the following entry.
Problem: Note GI50 for the compound shown: "CO[C@]12C=C/C(=C(/C(=O)OCc3cccnc3)C(=O)CCCCCCCC[C@]3(OC)C=C/C(=C(/C(=O)OCc4cccnc4)C(=O)CCCCCCCC1)O3)O2"
Result: 262 nM

###

Listed compounds paired with reported TGI
- Test system: U251 CNS
- Measurement Notes: NCI tumour cell line growth inhibition, 48 h

Below, each entry is followed by its recorded TGI result.
>>> result("CNC(=S)c1nnsc1N")
"> 100 µM"
>>> result("O=CC1C(=O)Nc2nc3ccccc3n2C1c1ccccc1 (configuration not stated)")
"29.1 µM"
>>> result("COc1ccc(-c2c(C#N)c(N)n(C3OC(COC(C)=O)C(OC(C)=O)C(OC(C)=O)C3OC(C)=O)c(=S)c2C#N)cc1 (configuration not stated)")
"> 100 µM"
>>> result("O=[N+]([O-])c1cc(C2ON=C(c3ccccc3)N2C23CC4CC(CC(C4)C2)C3)ccc1Cl (configuration not stated)")
"> 100 µM"

We next turn to a different compound, shown below.
Problem: Given "Cc1nc(N(C)C)nc(-c2cccc(-c3ccn(CCN(C)C)n3)c2)c1C" , report its TGI on U251 CNS.
Result: > 20 µM

###

- System: UACC-257 melanoma
- Measurement Notes: NCI tumour cell line growth inhibition, 48 h
Readout Label: TGI (µM)
# unit: µM | format: bare number

>>> numeric_readout("COc1ccc(-c2nn(C(=O)c3cc(OC)c(OC)c(OC)c3)c3cc(N)ccc23)cc1")
39.3

# ---- query compound ----
Problem: Look up and report measured TGI (UACC-257 melanoma) for the following compound: "CC1(C)CC(=O)C(/C=N/c2nc(-c3cccc([N+](=O)[O-])c3)cs2)=C(O)C1"
Result: 49.7

###

This section presents compounds with their documented TGI values.
- Tested on: SNB-78 CNS
- Measurement Notes: NCI tumour cell line growth inhibition, 48 h

Problem: State its TGI: "CC1(C)OC(=O)C(c2ccsc2)C(=O)O1"
Result: > 100 µM

Problem: Name the recorded TGI of the item "COc1ccc2c(c1)[n+](=O)c(C(=O)C/C(=N\NC(=O)C[N+](C)(C)C)C(=O)Nc1cc(Cl)ccc1Cl)c(C)n2O" in your answer.
Result: > 100 µM

Problem: Supply recorded TGI for CC(=O)Oc1cc(OC(C)=O)c(OC(C)=O)c2c1CC1C(=O)C3(CCc4ccccc43)C(=O)C1C2 (centres undefined) here.
Result: 58.2 µM

Problem: Note down TGI recorded for "O=C(O)c1cc2sc(C(=O)O)cc2s1"
Result: > 100 µM

Problem: Respond only with TGI recorded for O=C1OC(=O)C2C1C1(c3ccccc3)OC2(c2ccccc2)c2c(Br)c(Br)c(Br)c(Br)c21 (centres undefined)
Result: > 100 µM

Problem: Write down TGI measured for item "CC12CCC(C)(c3cc(O)c(O)cc31)c1cc(O)c(O)cc12"
Result: 39.2 µM

###

- Tested on: HOP-92 NSCLC
- Measurement Notes: NCI tumour cell line growth inhibition, 48 h
Readout Label: TGI (µM)
Please state the figure in µM; there is no need to write the unit.

For orientation, consider the following solved cases.
>>> numeric_readout("Nc1[nH]nc2c1Cc1c(n(Cc3ccc(Cl)cc3)c3ccccc13)C(=O)N2")
31.5
>>> numeric_readout("COc1cccc(/C=N/[N-]C(N)=O)c1[O-].[Cu+2].c1ccncc1")
31.5
>>> numeric_readout("CC12CCC(C)(c3cc(O)c(O)cc31)c1cc(O)c(O)cc12")
25.4
>>> numeric_readout("O=CN/C=C\\c1cc(O)ccc1O")
28
>>> numeric_readout("C=C(C)[C@H]1C=C[C@@H](OC(C)=O)[C@@]2(COC(C)=O)[C@H](OC(=O)CCC)[C@H]3[C@@H](OC(C)=O)[C@@H](C)C[C@]3(O)C(=O)[C@@](C)(OC(C)=O)[C@H]12")
69.8

Problem: Read the entry "C/C(=N\O)c1ccc(Nc2cc(-c3ccccc3)nc3c(O)cccc23)cc1" and write its reported TGI.
Result: 44.6
